The reported numbers originate from patent US20160376333A1.

Molecular target: T1, Epstein-Barr virus BHRF1 a.a. 1-161 with C-terminal avi-6his tag (Epstein-Barr virus)
T1 construct: also called EBV BHRF1; BHRF1-biotin
T1 chain: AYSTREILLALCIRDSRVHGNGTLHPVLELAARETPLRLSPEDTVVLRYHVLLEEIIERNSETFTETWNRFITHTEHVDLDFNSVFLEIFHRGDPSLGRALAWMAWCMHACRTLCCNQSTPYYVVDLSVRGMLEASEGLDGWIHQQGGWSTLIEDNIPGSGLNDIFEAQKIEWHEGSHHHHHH
Assay: yeast display library, FACS sort at 100 nM BHRF1, deep sequencing
MEASURE: Log2 enrichment ratio (log2)
The response must be a number in log2 with no trailing unit.

Please review the following examples before continuing.
BINDER	Log2 enrichment ratio, log2
Index 43 (designed binder) GKKAEEVLKEARKLHEAQLRYAYLMMKDWREKKQQEEKQTQREEKWTAWWIALMLMAIGDIFNFAEWAKEELDKLREKGLVEKKKAEEAKEKAEKLAEEASRRASEFAQLFAKWDKEG	-2.44
Index 21 (designed binder, also called computational precursor for BbpD04) GFDWKKVLDKAKDLAENDVREAKQKLEEFYKKAMKLDLTQEMRRKLMLEWIAAMLMAIGDIFNAIEQGKQEADKLKKLGKVLSQLLDELKRRLEELKEEAALKAHDFGREFELKLLFG	-3.38
Index 17 (designed binder) GRSAEIMREILEKQAEDDAKKIRDIAQKWKERRKRYDPRDEEREEEVEKWIAFALMAIGDIFNLARWALLQARWERRWNLSHEDEGKNHEENVKDAEDRAHWKAREAAREGAKMSWEG	-3.41

# next binder below
I would be grateful if you could share the reported Log2 enrichment ratio for Index 59 (designed binder) GITLEKLWKEAKEKIRKREDEALLKAEWFKKKANNVLDLNDMKAKMTAKWIALALMAIGDIFNYLLETEIKARLLVRLGLFRQEEAEKKKEEAKEEAIKSSRNIAKRGEEAAKQMEQG . -2.86
